Test system: RARb homodimer (NR concentration 270 nM)
ASSAY NOTES: PBM binding z-score (relative to random genomic background probes); higher = stronger binding; sequences stand for … in GC…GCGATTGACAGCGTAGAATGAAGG
Label 0 (no) if PBM binding z-score falls below 3; label 1 (yes) in every other case.

[
  {
    "QUERY SEQUENCE": "CCTTCCGGGTCACTGACAGGTTATAGCATTTGGA",
    "ASSAY TARGET": "RARb homodimer (NR concentration 270 nM)",
    "CATEGORY": "1 (yes)"
  },
  {
    "QUERY SEQUENCE": "CCTGCTAGGTCAGGGTCAGCTAATCTACAGTATG",
    "ASSAY TARGET": "RARb homodimer (NR concentration 270 nM)",
    "CATEGORY": "1 (yes)"
  },
  {
    "QUERY SEQUENCE": "GCTTGTAGATAAAGGTTAAGAAAGACTAAGCTAA",
    "ASSAY TARGET": "RARb homodimer (NR concentration 270 nM)",
    "CATEGORY": "0 (no)"
  },
  {
    "QUERY SEQUENCE": "GCTCGTTGGTCAGTAAAAGGTCACACACCGGTCG",
    "ASSAY TARGET": "RARb homodimer (NR concentration 270 nM)",
    "CATEGORY": "1 (yes)"
  },
  {
    "QUERY SEQUENCE": "CCTTACGGGTCGAGGTTATAGCACGGGTGGTACG",
    "ASSAY TARGET": "RARb homodimer (NR concentration 270 nM)",
    "CATEGORY": "0 (no)"
  },
  {
    "QUERY SEQUENCE": "CCTTACGGGTCACTCCAGGTTATAGCCTCGGAGT",
    "ASSAY TARGET": "RARb homodimer (NR concentration 270 nM)",
    "CATEGORY": "1 (yes)"
  }
]

----------
Tested on: PPARa:RXRa (NR concentration 270 nM, RXRa partner concentration 90 nM)
ASSAY NOTES: PBM binding z-score (relative to random genomic background probes); higher = stronger binding; sequences stand for … in GC…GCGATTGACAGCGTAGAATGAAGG

[
  {
    "QUERY SEQUENCE": "TCTTGTGGATCAAGCAGGTTAAGAAAGCCTGAGT",
    "PBM binding z-score": 0.766
  },
  {
    "QUERY SEQUENCE": "ATCTCTAGGTAAGACTCAGATCAGTGAAGAACGC",
    "PBM binding z-score": -0.153
  },
  {
    "QUERY SEQUENCE": "GCTAGTTGGTCAGTGAAAGGTCACACACCGGTCG",
    "PBM binding z-score": 4.43
  },
  {
    "QUERY SEQUENCE": "ACTAGCAGGCCCAGTTTGGGTCACTCAAACAAAG",
    "PBM binding z-score": 0.93
  },
  {
    "QUERY SEQUENCE": "CGAACTAGGTCATTGACAGGACACTGAATAGTAA",
    "PBM binding z-score": 4.54
  },
  {
    "QUERY SEQUENCE": "GTACCAAGGTGAAGAGGTCGTTGATGAGTAGGCG",
    "PBM binding z-score": 3
  },
  {
    "QUERY SEQUENCE": "TCTCGGAGGACACGAACGGTCAGAGCTCGACATC",
    "PBM binding z-score": 0.0396
  },
  {
    "QUERY SEQUENCE": "CATACAGGGTCAGCAAGGCCAGAGTAGGGACGGC",
    "PBM binding z-score": 4.51
  },
  {
    "QUERY SEQUENCE": "GCTTGTAGATCAAGGTTAAGAAGGACTAAGCTAA",
    "PBM binding z-score": 1.38
  },
  {
    "QUERY SEQUENCE": "CGAACTAGGCCATTGACAGGACAGTGAATAGTAA",
    "PBM binding z-score": 1.53
  },
  {
    "QUERY SEQUENCE": "GGCACGAGGGCATTCGAGTTGATAGCATGGCGAT",
    "PBM binding z-score": 0.942
  },
  {
    "QUERY SEQUENCE": "TCGAGTAGGTTAATCGGGGCATTCAGCCAACATA",
    "PBM binding z-score": 1.72
  },
  {
    "QUERY SEQUENCE": "CATACAGGGTCAGCTAGCCCAGAGTAGGGACGGC",
    "PBM binding z-score": 4.36
  },
  {
    "QUERY SEQUENCE": "ATATGTAGATTAAGGGTCATTCAGGTTGGTTCGC",
    "PBM binding z-score": 4.74
  },
  {
    "QUERY SEQUENCE": "CCTCGGAGGACAACAGCAGGTCAGAGCTGCCAGA",
    "PBM binding z-score": 0.561
  },
  {
    "QUERY SEQUENCE": "AGTCAAAGTTCAGGACGAGGTAACTTAAAGCACG",
    "PBM binding z-score": 3.59
  },
  {
    "QUERY SEQUENCE": "TCATATAGGTAAAAGATGAAAGTCGGTGTGGTAA",
    "PBM binding z-score": 2.6
  },
  {
    "QUERY SEQUENCE": "CGTCCAAGGTCAAGGTCAGTTAAAGAGACTCGAA",
    "PBM binding z-score": 6.11
  },
  {
    "QUERY SEQUENCE": "CCGACTGGGGCAAAGGTTACTATACTCAGTACGA",
    "PBM binding z-score": 4.86
  },
  {
    "QUERY SEQUENCE": "CCGACTGGGGAAAAGGTTACCATACTCAGTACGA",
    "PBM binding z-score": 3.82
  },
  {
    "QUERY SEQUENCE": "GCGGCTGGGGCAAAGCAGGTTACCATAAGGTTGG",
    "PBM binding z-score": 0.636
  },
  {
    "QUERY SEQUENCE": "CCTAGTTGGTCTAGGTCACACACGCTATAGGTAC",
    "PBM binding z-score": 2.18
  },
  {
    "QUERY SEQUENCE": "TAGCCTAGGTCATTGGGCCAATATAGTACGCATC",
    "PBM binding z-score": 4.38
  },
  {
    "QUERY SEQUENCE": "AGAATGAGGTTACCAAATATCAGGGAAACGCTTG",
    "PBM binding z-score": 3.3
  },
  {
    "QUERY SEQUENCE": "CAAACTAGGTCACCGGATGGTCAAAGTCCGCATG",
    "PBM binding z-score": 5.4
  },
  {
    "QUERY SEQUENCE": "CATACAGGGGCAGCTAGGCCAGAGTAGGGACGGC",
    "PBM binding z-score": -0.483
  }
]
